Where do these numbers come from? They come from patent US20240383922A1.

# Study Target: GDP-loaded KRAS-G12C (Homo sapiens (Human), UniProt P01116, G12C)
# Sequence (P01116-2 other isoform, or with tags, fused parts or gaps G12C): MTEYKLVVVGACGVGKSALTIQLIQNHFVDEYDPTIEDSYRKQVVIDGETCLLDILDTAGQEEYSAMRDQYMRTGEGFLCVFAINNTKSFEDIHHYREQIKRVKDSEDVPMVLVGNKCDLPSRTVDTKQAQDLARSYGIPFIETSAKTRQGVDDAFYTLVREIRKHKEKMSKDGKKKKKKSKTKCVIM
# Run Description: KRAS (GDP) biochemical TR-FRET probe displacement assay, KRAS-G12C
# Condition Summary: 2 hours
# Protocol: KRAS (GDP) Biochemical Assays: Compounds were serially diluted (1:3) in DMSO. The LabCyte ECHO Acoustic dispenser was used to pre-spot the assay plates (384-well Non-Binding Surface plates, Corning, Catalog #3824) with 50 nL of compound. […] The plates were incubated at room temperature for 2 hours before measuring TR-FRET ratio (665 nm/615 nm) on the Envision multimode plate reader. […]
Attribute Measured: IC50 (nM)

// solved cases for IC50 follow
{"Compound": "C#Cc1c(F)ccc2cc(O)cc(-c3nc4c5c(nc(OC[C@@]67CCCN6[C@H](COC(C(F)(F)F)(C(F)(F)F)C(F)(F)F)CC7)nc5c3F)N3CCCOC[C@@H]3CC4)c12 [Example 22-4]", "Attribute Measured": "IC50", "Observed Result": 1.83}
{"Compound": "C#Cc1c(F)ccc2cc(O)cc(-c3nc4c5c(nc(OC[C@@]67CCCN6[C@H](COc6cc(C(F)(F)F)ncn6)CC7)nc5c3F)N3CCCOC[C@@H]3CC4)c12 [Example 6-12]", "Attribute Measured": "IC50", "Observed Result": 0.92}
{"Compound": "C#Cc1c(F)ccc2cc(N)cc(-c3nc4c5c(nc(OC[C@@]67CCCN6[C@H](COc6cc(C(F)(F)F)cnn6)CC7)nc5c3F)N3CCCOC[C@@H]3CC4)c12 [Example 7-5]", "Attribute Measured": "IC50", "Observed Result": 0.55}

a. C#Cc1c(F)ccc2cc(O)cc(-c3c(F)c4c5c(nc(OC[C@@]67CCCN6C[C@H](F)C7)nc5c3F)N3CCCOC[C@@H]3CC4)c12 (mixture of isomers) [Example 6-21]
b. C#Cc1c(F)ccc2cc(N)cc(-c3nc4c5c(nc(OC[C@@]67CCCN6[C@H](COc6nccnc6C(F)F)CC7)nc5c3F)N3CCCOC[C@@H]3CC4)c12 [Example 7-6]
From the items above, decide which of a and b has the lower IC50 reading. Answer by quoting the chosen item's label.
a
(a: 0.54 nM, b: 1.09 nM)

----------
# Study Target: GDP-loaded KRAS-G12V (Homo sapiens (Human), UniProt P01116, G12V)
# Sequence (P01116-2 other isoform, or with tags, fused parts or gaps G12V): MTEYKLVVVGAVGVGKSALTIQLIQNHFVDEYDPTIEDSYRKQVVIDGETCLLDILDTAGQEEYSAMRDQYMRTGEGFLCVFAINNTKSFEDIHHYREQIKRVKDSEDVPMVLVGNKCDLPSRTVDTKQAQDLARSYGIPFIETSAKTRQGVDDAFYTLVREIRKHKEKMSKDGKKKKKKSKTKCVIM
# Run Description: KRAS (GDP) biochemical TR-FRET probe displacement assay, KRAS-G12V
# Type: binding
# Condition Summary: 2 hours
Attribute Measured: IC50 (nM)

{"Compound": "C#Cc1c(F)ccc2cc(O)cc(-c3c(F)c4c5c(nc(OC[C@@]67CCCN6C[C@H](F)C7)nc5c3F)N3CCCOC[C@@H]3CC4)c12 (mixture of isomers)", "Observed Result": 0.4}

A. C#Cc1c(F)ccc2cc(N)cc(-c3nc4c5c(nc(OC[C@@]67CCCN6[C@H](COc6cc(C(F)(F)F)ncn6)CC7)nc5c3F)N3CCCOC[C@@H]3CC4)c12
B. C#Cc1c(F)ccc2cc(N)cc(-c3nc4c5c(nc(OC[C@@]67CCCN6[C@H](COc6nccnc6C(F)F)CC7)nc5c3F)N3CCCOC[C@@H]3CC4)c12
// max by IC50 over [ A , B ] # reply format: chosen label
A

----------
# System: cellular pERK in Kuramochi (WT KRAS) cell-line
# Run Description: Cell based pERK assay (HTRF), Kuramochi
# Condition Summary: Kuramochi (WT KRAS) cells, 2 hours incubation
pEC50: −log10 of the molar value.
Attribute Measured: pEC50

Below: 4 compounds and their reported pEC50.
{"Compound": "C#Cc1c(F)ccc2cc(O)cc(-c3nc4c5c(nc(OCC6(CN7CCCCC7)CC6)nc5c3F)N3CCCOC[C@@H]3CC4)c12", "Study Target": "cellular pERK in Kuramochi (WT KRAS) cell-line", "pEC50": 6.74}
{"Compound": "CCc1c(F)ccc2cc(O)cc(-c3nc4c5c(nc(OC[C@@]67CCCN6C[C@H](F)C7)nc5c3F)N3CCOCCC3CC4)c12 (some centres unmarked)", "Study Target": "cellular pERK in Kuramochi (WT KRAS) cell-line", "pEC50": 8.50}
{"Compound": "C#Cc1c(F)ccc2cc(O)cc(-c3nc4c5c(nc(OC[C@@]67CCCN6C[C@H](F)C7)nc5c3F)N3CCOCCC3CC4)c12 (mixture of isomers)", "Study Target": "cellular pERK in Kuramochi (WT KRAS) cell-line", "pEC50": 8.80}
{"Compound": "C#Cc1c(F)ccc2cc(O)cc(-c3nc4c5c(nc(OC[C@@]67CCCN6C[C@H](F)C7)nc5c3F)N3CC(F)(F)COC[C@@H]3CC4)c12 (single isomer, unassigned)", "Study Target": "cellular pERK in Kuramochi (WT KRAS) cell-line", "pEC50": 8.64}

I. Cc1c(F)c(N)cc(-c2nc3c4c(nc(OC[C@@]56CCCN5C[C@H](F)C6)nc4c2F)N2CCCOC[C@@H]2CC3)c1C(F)(F)F
II. C#Cc1c(F)ccc2cc(O)cc(-c3nc4c5c(nc(OC[C@@]67CCCN6[C@H](COc6nccnc6C(F)C(C)F)CC7)nc5c3F)N3CCCOC[C@@H]3CC4)c12 (some centres unmarked)
Which record would sort first by descending pEC50, I or II ? // output: label of the selected item
II
(II: 8.46, I: 6.73)

----------
# Study Target: GDP-loaded KRAS-G12V (Homo sapiens (Human), UniProt P01116, G12V)
# Run Description: KRAS (GDP) biochemical TR-FRET probe displacement assay, KRAS-G12V
# Format: binding
# Condition Summary: 2 hours
Attribute Measured: IC50 (µM)

A. C#Cc1c(F)ccc2cc(O)cc(-c3nc4c5c(nc(OC[C@@]67CCCN6[C@H](COc6cc(C(F)(F)F)ncn6)CC7)nc5c3F)N3CCCOC[C@@H]3CC4)c12
B. C#Cc1c(F)ccc2cc(N)cc(-c3c(F)c4c5c(nc(OC[C@@]67CCCN6C[C@H](F)C7)nc5c3F)N3CCCOC[C@@H]3CC4)c12
C. C#Cc1c(F)ccc2cccc(-c3nc4c5c(nc(OC[C@@]67CCCN6[C@H](COc6cc(C(F)(F)F)ncn6)CC7)nc5c3F)N3CCCOC[C@@H]3CC4)c12
List items by IC50 in falling order. Sort the labels as requested; that list is your answer.
C, B, A
(C: 0.0292 µM, B: 0.0158 µM, A: 0.00022 µM)
